target: IDO1 (Homo sapiens); experiment: Hela cell-based IDO1 assay; conditions: Hela cells
Simple rule here: EC50 less than 0.2 µM is Condition met, otherwise Condition not met.

Please review the entries below; each comes with its answer.
OC(c1c(C2CC2)ccn2cncc12)C1CCN(c2cccc(Cl)c2)CC1 (stereo not shown)	Condition not met
O[C@H](c1c(C2CC2)ccc2cncn12)[C@H]1CC[C@H](c2ccc(Cl)c(F)c2)CC1 (single isomer, unassigned) [Example D128a]	Condition met
OC(c1c(C2CC2)ccc2cncn12)C1CCC(c2ccc(F)cc2F)CC1 (stereo not shown)	Condition met
N#Cc1ccc([C@H]2CC[C@H]([C@H](O)c3c(C4CC4)ccc4cncn34)CC2)cc1 (single isomer, unassigned) [Example D110a]	Condition met
O[C@@H](c1c(C2CC2)ccc2cncn12)[C@H]1CC[C@H](c2ccccc2)CC1 (single isomer, unassigned) [Example D101b]	Condition not met

Please look at the following compound next.
query: Below 0.2 µM on EC50? Entry O=C(O)c1ccc([C@H]2CC[C@H]([C@@H](O)c3c(C4CC4)ccc4cncn34)CC2)cc1 (single isomer, unassigned) [Example D111b]
result: Condition not met

* * *

target: cellular TDO2 in HEK293-TDO2 cells (Homo sapiens, UniProt P48775); assay: 293-TDO2 cell-based assay (Kyn colorimetric); settings: 48 hours of incubation
Sequence (P48775 whole entry): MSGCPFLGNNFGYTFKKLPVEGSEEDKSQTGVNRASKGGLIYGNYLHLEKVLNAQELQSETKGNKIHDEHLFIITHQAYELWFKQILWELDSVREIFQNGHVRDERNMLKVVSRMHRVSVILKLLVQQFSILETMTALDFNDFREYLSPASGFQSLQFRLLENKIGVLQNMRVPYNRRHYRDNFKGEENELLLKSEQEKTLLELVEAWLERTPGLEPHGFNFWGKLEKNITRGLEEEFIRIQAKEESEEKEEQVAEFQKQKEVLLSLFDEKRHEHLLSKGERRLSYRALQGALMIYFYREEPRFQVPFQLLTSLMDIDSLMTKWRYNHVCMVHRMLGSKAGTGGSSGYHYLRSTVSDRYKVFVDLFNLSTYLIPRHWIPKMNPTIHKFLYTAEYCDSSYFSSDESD
Catalogue of compounds with associated EC50

query: Consider the compound O[C@@H](c1c(C2CC2)ccn2cncc12)[C@H]1CC[C@H](c2ccnc3ccccc32)CC1 (single isomer, unassigned) [Example C130b] and give its measured EC50.
result: > 10 µM

query: Consider the compound O[C@@H](c1c(C2CC2)ccc2cncn12)C1CCC(c2csc3ccccc23)CC1 (single isomer, unassigned) [Example D155b] and give its measured EC50.
result: > 10 µM

query: Consider the compound O=C(Nc1ccc(C2CCC(C(O)c3c(C4CC4)ccc4cncn34)CC2)cc1)OCc1ccccc1 (stereo not drawn) [Example D121] and give its measured EC50.
result: > 10 µM

query: Consider the compound Oc1ccc([C@H]2CC[C@H](C(O)c3c(C4CC4)ccc4cncn34)CC2)cc1 (single isomer, unassigned) [Example D106a] and give its measured EC50.
result: > 10 µM

query: Consider the compound O=C(COc1ccc([C@H]2CC[C@H]([C@H](O)c3c(C4CC4)ccc4cncn34)CC2)cc1)c1ccccc1 [Example D152] and give its measured EC50.
result: > 10 µM

query: Consider the compound O[C@H](c1c(C2CC2)ccc2cncn12)[C@H]1CC[C@H](c2ccc(Cl)c(F)c2)CC1 (single isomer, unassigned) [Example D128a] and give its measured EC50.
result: > 10 µM

* * *

target: IDO1 (Homo sapiens, UniProt P14902); test: IDO1 enzymatic assay; format: biochemical; design: His tag (N); made in house; host or cells: E. coli; conditions: read-out: Enzyme IC50 IDO1
Sequence (P14902 whole entry): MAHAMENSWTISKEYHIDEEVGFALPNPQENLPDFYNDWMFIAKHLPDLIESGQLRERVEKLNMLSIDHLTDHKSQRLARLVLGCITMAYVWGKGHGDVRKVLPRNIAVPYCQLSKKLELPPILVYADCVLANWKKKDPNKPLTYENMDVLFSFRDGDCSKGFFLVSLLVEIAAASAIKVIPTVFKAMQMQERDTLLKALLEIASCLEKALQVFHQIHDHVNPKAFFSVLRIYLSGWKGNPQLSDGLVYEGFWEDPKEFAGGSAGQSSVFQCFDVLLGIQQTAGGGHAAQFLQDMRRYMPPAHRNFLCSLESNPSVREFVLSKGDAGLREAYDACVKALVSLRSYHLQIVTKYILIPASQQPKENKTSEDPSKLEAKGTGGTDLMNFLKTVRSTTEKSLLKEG
Catalogue of compounds with associated IC50
Output spec: scalar in nM, unitless text.

Guide cases for IC50, answers given:
OC(c1c(C2CC2)ccc2cncn12)C1CCC(c2cc3ccccc3s2)CC1 (centres unmarked)	68
OC(c1cc(Cl)cc2cncn12)C1CCC(c2cccc3ccccc23)CC1 (centres unmarked)	43
OC(c1c(C2CC2)ccn2cncc12)C1CCC(c2ccnc3c(F)cccc23)CC1 (centres unmarked)	33
O[C@H](c1c(C2CC2)ccn2cncc12)[C@H]1CC[C@H](c2ccc(C(F)(F)F)nc2)CC1 (single isomer, unassigned) [Example C120a]	39
COc1cccc(C2CCC(C(O)c3c(C4CC4)ccn4cncc34)CC2)c1 (centres unmarked)	51
O[C@@H](c1c(C2CC2)ccn2cncc12)[C@H]1CC[C@H](c2ccccc2F)CC1 (single isomer, unassigned) [Example C108b]	7300
O[C@H](c1c(C2CC2)ccn2cncc12)[C@H]1CC[C@H](c2ccc(Cl)cc2)CC1 (single isomer, unassigned) [Example C102a]	36
O[C@@H](c1c(C2CC2)ccc2cncn12)[C@H]1CC[C@H](c2ccc(Oc3ccccc3)cc2)CC1 (single isomer, unassigned) [Example D120b]	3700

query: Consider the compound OC(c1c(C2CC2)ccn2cncc12)C1CCC(c2ccc(OC3CCCC3)cc2)CC1 (centres unmarked) and give its measured IC50.
result: 120

query: Consider the compound O[C@@H](c1c(C2CC2)ccc2cncn12)C1CCN(c2cccc(Cl)c2)CC1 (single isomer, unassigned) [Example D173b] and give its measured IC50.
result: 2700

query: Consider the compound Cc1ccc([C@H]2CC[C@H]([C@H](O)c3c(C4CC4)ccn4cncc34)CC2)cc1 (single isomer, unassigned) [Example C110a] and give its measured IC50.
result: 35

query: Consider the compound Oc1ccc([C@H]2CC[C@H](C(O)c3c(C4CC4)ccn4cncc34)CC2)cc1 (single isomer, unassigned) [Example C104b] and give its measured IC50.
result: 5200

query: Consider the compound Oc1ccc(C2CCC(C(O)c3c(C4CC4)ccc4cncn34)CC2)cc1 (centres unmarked) and give its measured IC50.
result: 30

query: Consider the compound COc1ccccc1[C@H]1CC[C@H]([C@@H](O)c2c(C3CC3)ccn3cncc23)CC1 (single isomer, unassigned) [Example C113b] and give its measured IC50.
result: 8200

* * *

biological target: IDO1 (Homo sapiens, UniProt P14902); experiment: IDO1 enzymatic assay; assay type: biochemical; parameters: His tag (N); made in house; host or cells: E. coli; conditions: read-out: Enzyme IC50 IDO1
PROPERTY_MEASURED: IC50 (nM)
Output spec: scalar in nM, unitless text.

Guide cases for IC50, answers given:
COc1ccccc1C1CCC(C(O)c2c(C3CC3)ccc3cncn23)CC1 (centres unmarked)	43
COc1ccc([C@H]2CC[C@H]([C@H](O)c3c(C4CC4)ccc4cncn34)CC2)cc1 (single isomer, unassigned) [Example D102a]	14
NC(=O)Nc1ccc([C@H]2CC[C@H]([C@H](O)c3c(C4CC4)ccc4cncn34)CC2)cc1	15
O[C@H](c1c(C2CC2)ccc2cncn12)[C@H]1CC[C@H](c2ccccc2Cl)CC1 (single isomer, unassigned) [Example D117a]	30
OC(c1c(C2CC2)ccc2cncn12)[C@H]1CC[C@H](c2ccc(Cl)cc2)CC1 (single isomer, unassigned) [Example D103b]	7800
O[C@@H](c1c(C2CC2)ccn2cncc12)[C@H]1CC[C@H](c2ccccc2C(F)(F)F)CC1 (single isomer, unassigned) [Example C116b]	5400

# context switch: different compound, same IC50
query: Consider the compound OC(c1c(C2CC2)ccn2cncc12)C1CCN(c2ccccc2)CC1 (single isomer, unassigned) [Example C136b] and give its measured IC50.
result: 5400

* * *

target: IDO1 (Homo sapiens); test: Hela cell-based IDO1 assay; settings: Hela cells
PROPERTY_MEASURED: EC50 (µM)
Output spec: scalar in µM, unitless text.

OC(c1c(C2CC2)ccc2cncn12)[C@H]1CC[C@H](c2ccc3ccsc3c2)CC1 (single isomer, unassigned) [Example D134b]	5.67

# context switch: different compound, same EC50
query: Consider the compound OC(c1c(C2CC2)ccn2cncc12)C1CCC(c2ccc3c(c2)OCO3)CC1 (stereo not shown) and give its measured EC50.
result: 0.372

* * *

Catalogue of molecules with associated pIC50
molecular target: IDO1 (Homo sapiens, UniProt P14902); experiment: IDO1 enzymatic assay; assay type: biochemical; design: His tag (N); made in house; host or cells: E. coli; settings: read-out: Enzyme IC50 IDO1
Lab note: report pIC50 as minus log10 of the concentration in molar units, number only.

Guide cases for pIC50, answers given:
CC(=O)COc1ccc([C@H]2CC[C@H]([C@H](O)c3c(C4CC4)ccc4cncn34)CC2)cc1	7.82
O[C@H](c1c(C2CC2)ccn2cncc12)[C@H]1CC[C@H](c2ccc(OC(F)(F)F)cc2)CC1 (single isomer, unassigned) [Example C105a]	7.32

query: Consider the molecule Oc1ccc(N2CCC(C(O)c3c(C4CC4)ccn4cncc34)CC2)cc1 (stereo not shown) and give its measured pIC50.
result: 6.89

query: Consider the molecule O[C@H](c1c(C2CC2)ccc2cncn12)[C@H]1CC[C@H](c2ccc(-c3ccccc3)cc2)CC1 (single isomer, unassigned) [Example D119a] and give its measured pIC50.
result: 7.47

* * *

biological target: IDO1 (Homo sapiens, UniProt P14902); test: Hela cell-based IDO1 assay; settings: Hela cells
PROPERTY_MEASURED: pEC50
Lab note: report pEC50 as minus log10 of the concentration in molar units, number only.

Guide cases for pEC50, answers given:
OC(c1c(C2CC2)ccc2cncn12)C1CCC(c2ccc3cccnc3c2)CC1 (stereo not drawn)	6.58
Nc1ccc(C2CCC(C(O)c3c(C4CC4)ccc4cncn34)CC2)cc1 (stereo not drawn)	6.64
CC(C)c1ccc2cncn2c1[C@@H](O)[C@H]1CC[C@H](c2cccc(Cl)c2)CC1 (single isomer, unassigned) [Example D168a]	7.60
OC(c1c(C2CC2)ccc2cncn12)C1CCC(c2ccc(Br)cc2)CC1 (stereo not drawn)	6.26
O[C@@H](c1c(C2CC2)ccc2cncn12)C1CCN(c2cccc(Cl)c2)CC1 (single isomer, unassigned) [Example D173b]	5.13

query: Consider the compound OC(c1c(C2CC2)ccn2cncc12)C1CCN(c2ccc(F)c3ncccc23)CC1 (stereo not drawn) [Example C149] and give its measured pEC50.
result: 7.38

query: Consider the compound COCCOc1ccc([C@H]2CC[C@H]([C@@H](O)c3c(C4CC4)ccn4cncc34)CC2)cc1 (single isomer, unassigned) [Example C103b] and give its measured pEC50.
result: 5.53

query: Consider the compound OC(c1c(C2CC2)ccn2cncc12)C1CCN(c2ccc(Cl)c3ncccc23)CC1 (single isomer, unassigned) [Example C154b] and give its measured pEC50.
result: 5.19
